# Test system: SU-DHL-6
# Procedure text: Antiproliferative activity against human SU-DHL-6 cells assessed as cell growth inhibition incubated for 72 hrs by MTT assay
# Type: functional
Catalogue of compounds with associated GI50
Please respond with the number in µM and leave the unit unwritten.

Please review the following examples before continuing.
COc1ncc(-c2ccc3ncnc(N[C@H]4CCN(C(=O)C5CCN(CCCCCCCCCC(=O)N[C@H](C(=O)N6C[C@H](O)C[C@H]6C(=O)N[C@@H](C)c6ccc(-c7scnc7C)cc6)C(C)(C)C)CC5)C4)c3n2)cc1C(=O)Oc1ccccc1: 0.17
COc1ncc(-c2ccc3ncnc(N[C@H]4CCN(C(=O)C5CCN(CCCCCCC(=O)N[C@H](C(=O)N6C[C@H](O)C[C@H]6C(=O)NCc6ccc(-c7scnc7C)cc6)C(C)(C)C)CC5)C4)c3n2)cc1C(=O)Oc1ccccc1: 2.63
COc1ncc(-c2ccc3ncnc(N[C@H]4CCN(CCCCCCCC(=O)N[C@H](C(=O)N5C[C@H](O)C[C@H]5C(=O)NCc5ccc(-c6scnc6C)cc5)C(C)(C)C)C4)c3n2)cc1C(=O)Oc1ccccc1: 0.9
COc1ncc(-c2ccc3ncnc(N[C@H]4CCN(CCCCCCCCC(=O)N[C@H](C(=O)N5C[C@H](O)C[C@H]5C(=O)NCc5ccc(-c6scnc6C)cc5)C(C)(C)C)C4)c3n2)cc1C(=O)Oc1ccccc1: 1.37

Provide value of GI50 for this record tested with SU-DHL-6: CC[C@H](Nc1ncnc2[nH]cnc12)c1nc2cccc(F)c2c(=O)n1-c1ccccc1 [IDELALISIB] 0.25

Provide value of GI50 for this record tested with SU-DHL-6: COc1ncc(-c2ccc3ncnc(N[C@H]4CCN(C(=O)C5CCN(CCCCCCCCCC(=O)Nc6cccc7c6CN(C6CCC(=O)NC6=O)C7=O)CC5)C4)c3n2)cc1C(=O)Oc1ccccc1 (some centres not stated) 0.49

Provide value of GI50 for this record tested with SU-DHL-6: `COc1ncc(-c2ccc3ncnc(N[C@H]4CCN(C(=O)C5CCN(CCCCCCCCCCC(=O)N[C@H](C(=O)N6C[C@H](O)C[C@H]6C(=O)NCc6ccc(-c7scnc7C)cc6)C(C)(C)C)CC5)C4)c3n2)cc1C(=O)Oc1ccccc1` 0.18
